# systemTested: UniProtKB P12931
# Sequence (P12931 2-536 limits assumed): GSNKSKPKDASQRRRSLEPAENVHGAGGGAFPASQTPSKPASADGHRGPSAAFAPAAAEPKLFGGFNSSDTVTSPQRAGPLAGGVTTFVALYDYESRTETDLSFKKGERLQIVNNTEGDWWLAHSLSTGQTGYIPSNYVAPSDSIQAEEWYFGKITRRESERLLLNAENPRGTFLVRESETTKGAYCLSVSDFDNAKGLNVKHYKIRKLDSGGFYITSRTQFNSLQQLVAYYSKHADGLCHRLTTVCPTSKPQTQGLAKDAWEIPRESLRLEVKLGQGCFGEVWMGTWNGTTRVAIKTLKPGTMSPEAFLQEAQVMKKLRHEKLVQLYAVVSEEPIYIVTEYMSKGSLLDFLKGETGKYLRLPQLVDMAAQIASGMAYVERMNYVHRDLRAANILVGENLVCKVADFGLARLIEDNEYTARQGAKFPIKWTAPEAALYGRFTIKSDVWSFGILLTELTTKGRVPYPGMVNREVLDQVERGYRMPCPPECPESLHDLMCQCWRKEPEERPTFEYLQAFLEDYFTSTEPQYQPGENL
# Type: biochemical
# experimentalContext: SRC; 1 μM compound concentration
measuredEndpoint: POC (Percent of control) SRC (POC)

compound	measuredEndpoint	experimentalResult
Cc1nc(N)nc(-c2cc(CN3CCN(S(C)(=O)=O)CC3)cnc2Nc2cccc(O)c2)n1 [Example 30]	POC (Percent of control) SRC	103
Cc1nc(-c2cccnc2Nc2cccc3[nH]ncc23)c2nc[nH]c2n1 [Example 57]	POC (Percent of control) SRC	93
Cc1nc(N)nc(-c2cccnc2Nc2cccc(O)c2)n1 [Example 23]	POC (Percent of control) SRC	99
COc1ccc(Nc2ncc(CN3CCN(C(C)=O)CC3)cc2-c2nc(C)nc3[nH]cnc23)cn1 [Example 89]	POC (Percent of control) SRC	101
